As a worked illustration, we turn to Ki data collected for cloned human μ opioid receptor (Homo sapiens).
Report as a plain number; the unit µM is understood.

C[C@H]1CN(C[C@H](Cc2ccccc2)C(=O)NCC(=O)O)CC[C@@]1(C)c1cccc(C(N)=O)c1 [Example 58] : 0.0026

Then this compound:
Consider C[C@H]1CN(CC(Cc2ccccc2)C(=O)NCC(=O)O)CC[C@@]1(C)c1cccc(C(=O)O)c1 (stereo in doubt) [Example 28] . Its measured Ki is 0.019
